# System: T47D cells
# Measurement description: Cellular growth inhibition assay for T47D cells, CellTiter-Glo
# Format: cell-based, human
# Condition set: 72 hours treatment, CellTiter-Glo 2.0 cell viability
Measure: GI50

Recorded GI50, per entry:
Compound	Tgt	Meas value
Cc1sc2c(c1C)C(c1ccc(C[C@H]3C[C@@H](OC4CCN(c5ncc(C(=O)N[C@H]6C(C)(C)[C@H](Oc7ccc(C#N)c(Cl)c7)C6(C)C)cn5)CC4)C3)cc1)=N[C@@H](Cc1ncco1)c1nnc(C)n1-2	T47D cells	< 500 nM
Cc1sc2c(c1C)C(c1ccc(N3CC(C4CCC(Cc5ncc(C(=O)N[C@H]6C(C)(C)[C@H](Oc7ccc(C#N)c(Cl)c7)C6(C)C)cn5)CC4)C3)cc1)=N[C@@H](Cc1ncco1)c1nnc(C)n1-2 (stereo partly shown) [Compound I-544]	T47D cells	500 to 1500 nM
Cc1sc2c(c1C)C(c1ccc([C@H]3C[C@@H](C[C@@H]4CCCN(c5ncc(C(=O)N[C@H]6C(C)(C)[C@H](Oc7ccc(C#N)c(Cl)c7)C6(C)C)cn5)C4)C3)cc1)=N[C@@H](Cc1ncco1)c1nnc(C)n1-2	T47D cells	> 3000 nM

Inquiry: Quick check: GI50 of Cc1sc2c(c1C)C(c1ccc(C3CC(CC4CCN(c5ncc(C(=O)N[C@H]6C(C)(C)[C@H](Oc7ccc(C#N)c(Cl)c7)C6(C)C)cn5)CC4)C3)cc1)=NC(C)c1nnc(C)n1-2 (stereo partly shown) [Compound I-510] ?
Reply text: > 3000 nM

###

# Tested on: T47D cells
# Measurement description: Cellular growth inhibition assay for T47D cells, CellTiter-Glo
# Assay type: cell-based, human
# Condition set: 72 hours treatment, CellTiter-Glo 2.0 cell viability
GI50 by entry:

Compound	GI50
Cc1sc2c(c1C)C(c1ccc([C@H]3C[C@@H]3CC3CCCN(c4ncc(C(=O)N[C@H]5C(C)(C)[C@H](Oc6ccc(C#N)c(Cl)c6)C5(C)C)cn4)C3)cc1)=NC(Cc1ncco1)c1nnc(C)n1-2 (some centres unmarked) [Compound I-496]	< 0.5 µM
Cc1sc2c(c1C)C(c1ccc(C3CC(CC4CCN(c5ncc(C(=O)N[C@H]6C(C)(C)[C@H](Oc7ccc(C#N)c(Cl)c7)C6(C)C)cn5)CC4)C3)cc1)=NC(C)c1nnc(C)n1-2 (some centres unmarked) [Compound I-509]	< 0.5 µM
Cc1sc2c(c1C)C(c1ccc(CC3CC4(CCN(c5ccc(C(=O)N[C@H]6C(C)(C)[C@H](Oc7ccc(C#N)c(Cl)c7)C6(C)C)cn5)CC4)C3)cc1)=N[C@@H](Cc1ncco1)c1nnc(C)n1-2	< 0.5 µM
Cc1sc2c(c1C)C(c1ccc(C#CC3CCC(Cc4ncc(C(=O)N[C@H]5C(C)(C)[C@H](Oc6ccc(C#N)c(Cl)c6)C5(C)C)cn4)CC3)cc1)=N[C@@H](Cc1ncco1)c1nnc(C)n1-2 (some centres unmarked) [Compound I-505]	> 3 µM

Inquiry: Given `Cc1sc2c(c1C)C(c1ccc(CCCOC3CCN(c4ncc(C(=O)N[C@H]5C(C)(C)[C@H](Oc6ccc(C#N)c(Cl)c6)C5(C)C)cn4)CC3)cc1)=C[C@H](Cc1ccncn1)c1nnc(C)n1-2` , state its recorded GI50.
Reply text: < 0.5 µM

###

# System: T-Rex 293 cell line SC cells lacking increased expression of progesterone receptor isoform B protein
# Measurement description: Cellular growth inhibition, T-Rex 293 SC cells without doxycycline, Example 45
# Type: cell-based
# Condition set: T-Rex 293 SC cells not exposed to doxycycline, 72 hours treatment, CellTiter-Glo 2.0
Measure: GI50

Cc1sc2c(c1C)C(c1ccc(CC3CC4(CCN(c5ccc(C(=O)N[C@H]6C(C)(C)[C@H](Oc7ccc(C#N)c(Cl)c7)C6(C)C)cn5)CC4)C3)cc1)=N[C@@H](Cc1ncco1)c1nnc(C)n1-2 < 500 nM

Now look at this one.
Inquiry: Which GI50 value is on record for `Cc1sc2c(c1C)C(c1ccc(Cl)cc1)=N[C@H](CC(=O)NCCOCCOCCOCCOCCOC1CCN(c3ncc(C(=O)N[C@H]4C(C)(C)[C@H](Oc5ccc(C#N)c(Cl)c5)C4(C)C)cn3)CC1)c1nnc(C)n1-2` ?
Reply text: 1500 to 3000 nM
